- test-system: FGFR1 (UniProt P11362)
- Sequence (P11362 whole entry, looked up): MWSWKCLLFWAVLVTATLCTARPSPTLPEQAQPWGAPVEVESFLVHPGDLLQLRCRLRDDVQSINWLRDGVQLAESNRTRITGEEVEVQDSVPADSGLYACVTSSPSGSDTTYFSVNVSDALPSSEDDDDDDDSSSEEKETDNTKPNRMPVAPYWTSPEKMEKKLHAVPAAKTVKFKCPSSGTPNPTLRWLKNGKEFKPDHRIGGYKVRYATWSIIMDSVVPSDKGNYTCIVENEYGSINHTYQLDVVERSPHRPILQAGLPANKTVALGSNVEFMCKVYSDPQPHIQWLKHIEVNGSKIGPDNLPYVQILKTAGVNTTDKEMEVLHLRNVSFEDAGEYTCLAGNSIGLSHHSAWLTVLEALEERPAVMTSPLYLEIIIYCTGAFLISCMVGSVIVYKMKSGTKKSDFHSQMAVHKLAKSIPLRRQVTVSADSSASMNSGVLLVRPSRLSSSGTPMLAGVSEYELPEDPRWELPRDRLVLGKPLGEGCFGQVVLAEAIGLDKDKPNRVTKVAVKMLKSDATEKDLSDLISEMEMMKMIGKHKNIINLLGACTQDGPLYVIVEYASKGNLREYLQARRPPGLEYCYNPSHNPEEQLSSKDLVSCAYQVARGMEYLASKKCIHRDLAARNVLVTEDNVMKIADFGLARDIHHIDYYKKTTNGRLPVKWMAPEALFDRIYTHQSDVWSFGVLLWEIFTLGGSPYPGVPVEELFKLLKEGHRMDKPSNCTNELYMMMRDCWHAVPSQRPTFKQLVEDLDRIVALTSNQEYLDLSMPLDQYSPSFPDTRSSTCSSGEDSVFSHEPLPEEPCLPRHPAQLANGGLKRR
- assay-method-text: phosphorylation enrichment, bacterial display (enrichment ratio); higher = better substrate or ligand; peptides without Tyr show the background;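 also: 11-residue human phosphosite peptides and single-mutation variants displayed on the E. coli surface, counted by deep sequencing, each peptide's frequency after selection divided by its frequency in the unselected input library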;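 also: frequency after pTyr selection over input frequency; kinase dosed for 20-30% of maximal phosphorylation in three min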
Tick yes (1) if phosphorylation enrichment is 0.7 or greater. Tick no (0) if phosphorylation enrichment is less than 0.7.

Reference set (6 entries):
KNKKDYFDMFE [SLC26A3_Y526_YF] ... yes (1)
LADKPYTFEDF [FXN_Y118_YF] ... yes (1)
FDNPVYQKTTE [LDLR_Y828] ... no (0)
DFTSRYLNASD [PKHD1_Y828] ... no (0)
GKFRMYVAVWT [F13A1_Y161] ... no (0)
NTGNFYDLFGG [PTPN11_Y63_D61N_YF] ... no (0)

From here, focus on the item given below.
INPUT: State whether the measured phosphorylation enrichment reaches 0.7, counting equality as reaching it, for FRKNIYNVKST [SYNE2_Y575_YF]
OUTPUT: no (0)

Source of measurements: the supplement of paper PMC10065799
